# target: recombinant human baculovirus-expressed GST-tagged FASN (Homo sapiens, UniProt P49327)
# Construct: GST
# Sequence (P49327 whole entry): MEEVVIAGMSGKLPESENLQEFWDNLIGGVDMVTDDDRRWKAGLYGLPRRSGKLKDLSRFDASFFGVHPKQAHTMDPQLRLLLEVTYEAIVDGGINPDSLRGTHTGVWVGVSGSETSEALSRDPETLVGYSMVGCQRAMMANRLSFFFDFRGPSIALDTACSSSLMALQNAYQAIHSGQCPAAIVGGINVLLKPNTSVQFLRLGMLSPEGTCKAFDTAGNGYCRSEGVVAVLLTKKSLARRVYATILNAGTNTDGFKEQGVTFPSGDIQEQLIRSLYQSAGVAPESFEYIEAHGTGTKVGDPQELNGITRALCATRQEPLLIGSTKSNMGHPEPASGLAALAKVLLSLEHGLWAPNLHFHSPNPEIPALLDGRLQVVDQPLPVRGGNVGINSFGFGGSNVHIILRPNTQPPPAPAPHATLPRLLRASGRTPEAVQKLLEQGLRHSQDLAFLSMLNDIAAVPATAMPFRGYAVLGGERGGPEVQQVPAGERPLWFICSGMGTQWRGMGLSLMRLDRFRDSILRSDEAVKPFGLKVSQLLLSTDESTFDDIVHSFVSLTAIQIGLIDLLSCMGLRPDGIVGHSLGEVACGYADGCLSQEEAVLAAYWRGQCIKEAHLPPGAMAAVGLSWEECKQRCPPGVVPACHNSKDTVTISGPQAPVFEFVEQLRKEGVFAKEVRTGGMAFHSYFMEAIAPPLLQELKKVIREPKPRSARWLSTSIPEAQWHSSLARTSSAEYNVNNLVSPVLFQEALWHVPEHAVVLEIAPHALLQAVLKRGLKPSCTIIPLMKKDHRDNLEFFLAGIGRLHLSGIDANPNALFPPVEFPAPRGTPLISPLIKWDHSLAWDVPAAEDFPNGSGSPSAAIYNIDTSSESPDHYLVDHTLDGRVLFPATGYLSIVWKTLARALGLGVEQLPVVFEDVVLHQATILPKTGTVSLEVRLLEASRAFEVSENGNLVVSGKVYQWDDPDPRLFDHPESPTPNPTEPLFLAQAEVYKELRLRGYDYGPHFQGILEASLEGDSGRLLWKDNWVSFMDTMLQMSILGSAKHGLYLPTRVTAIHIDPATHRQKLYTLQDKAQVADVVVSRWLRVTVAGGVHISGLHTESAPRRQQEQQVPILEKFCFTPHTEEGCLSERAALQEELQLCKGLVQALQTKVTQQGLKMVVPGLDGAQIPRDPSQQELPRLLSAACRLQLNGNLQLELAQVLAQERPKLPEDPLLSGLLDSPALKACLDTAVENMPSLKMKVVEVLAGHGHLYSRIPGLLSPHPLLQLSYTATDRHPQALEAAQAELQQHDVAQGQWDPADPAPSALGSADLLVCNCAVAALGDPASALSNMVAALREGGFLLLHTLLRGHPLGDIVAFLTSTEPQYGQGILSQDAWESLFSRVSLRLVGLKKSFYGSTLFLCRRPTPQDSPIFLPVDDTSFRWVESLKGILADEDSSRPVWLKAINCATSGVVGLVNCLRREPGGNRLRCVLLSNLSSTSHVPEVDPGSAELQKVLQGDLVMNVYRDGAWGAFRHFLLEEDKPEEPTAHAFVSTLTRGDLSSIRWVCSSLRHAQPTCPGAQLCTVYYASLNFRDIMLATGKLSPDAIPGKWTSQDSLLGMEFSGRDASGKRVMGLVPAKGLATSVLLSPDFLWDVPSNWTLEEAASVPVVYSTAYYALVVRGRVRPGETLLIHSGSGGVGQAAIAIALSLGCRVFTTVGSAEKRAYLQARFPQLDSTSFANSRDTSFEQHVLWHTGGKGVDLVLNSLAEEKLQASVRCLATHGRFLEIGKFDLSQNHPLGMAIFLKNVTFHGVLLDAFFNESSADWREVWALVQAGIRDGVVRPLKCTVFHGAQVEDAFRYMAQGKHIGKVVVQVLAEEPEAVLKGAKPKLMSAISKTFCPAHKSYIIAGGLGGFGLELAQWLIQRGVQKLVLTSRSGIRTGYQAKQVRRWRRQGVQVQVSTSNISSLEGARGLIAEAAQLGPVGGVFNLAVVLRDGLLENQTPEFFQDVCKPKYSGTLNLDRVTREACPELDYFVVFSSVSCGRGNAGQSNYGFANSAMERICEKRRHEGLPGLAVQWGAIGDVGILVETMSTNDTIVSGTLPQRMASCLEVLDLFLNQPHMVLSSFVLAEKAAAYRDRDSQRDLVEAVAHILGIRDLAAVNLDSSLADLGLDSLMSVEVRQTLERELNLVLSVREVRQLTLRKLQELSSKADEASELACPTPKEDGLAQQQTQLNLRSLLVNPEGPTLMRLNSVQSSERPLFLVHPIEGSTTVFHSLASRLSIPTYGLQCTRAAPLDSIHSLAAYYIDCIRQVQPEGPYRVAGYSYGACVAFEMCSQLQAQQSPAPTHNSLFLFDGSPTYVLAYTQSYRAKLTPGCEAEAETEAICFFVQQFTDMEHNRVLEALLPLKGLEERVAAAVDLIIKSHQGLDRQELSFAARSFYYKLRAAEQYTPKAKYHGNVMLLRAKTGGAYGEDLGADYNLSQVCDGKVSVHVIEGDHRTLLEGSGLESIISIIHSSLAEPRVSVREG
# protocol-notes: FASN enzyme activity assay, fluorescence-based detection of CoA with CPM
# Assay type: biochemical
# condition-label: 5 nM FASN, 150 μM NADPH, 10 μM acetyl-CoA, 25 μM malonyl-CoA, 90 minutes incubation; read-out: IC50 data for Compounds of Formulae I-V/V(a): Activity
Structures can show the parent of a compound that is named as a salt.
assay-endpoint: IC50

Below are worked cases with known answers.
>  <compound>
O=C([C@H]1CCCO1)N1CCC(Oc2ccc(-c3ccc4cnccc4c3)cc2)CC1 [Example 467, HCl]

>  <assay-endpoint>
IC50

>  <reported-result>
1 to 99 nM

$$$$
>  <compound>
COc1cc2ncc(-c3ccc(OC4CCN(C(=O)[C@H]5CCCO5)CC4)cc3)cc2cc1C [Example 443]

>  <assay-endpoint>
IC50

>  <reported-result>
1000 to 10000 nM

$$$$
>  <compound>
CCC(=O)N1CCC(Oc2ccc(-c3cnc4ccccc4c3N3CCN(C)CC3)cc2)CC1 [Example 239]

>  <assay-endpoint>
IC50

>  <reported-result>
1000 to 10000 nM

$$$$

// returns reported IC50 for input CCc1cc2cc(-c3ccc(OC4CCN(C(=O)[C@H]5CCCO5)CC4)cc3)ccc2cn1 [Example 476] 1 to 99 nM

// lookup IC50 for CCC(=O)N1CCC(Oc2ccc(-c3cnc4ccccc4c3)cc2Cl)CC1 [Example 191] 1000 to 10000 nM

Reported IC50 for CCC(=O)N1CCC(Oc2ccc(-c3cnc4ccccc4c3)c(OC)c2)CC1 [Example 209] : what is it? 1000 to 10000 nM

What value of IC50 has been reported for the following compound? CCC(=O)N1CCC(Oc2ccc(-c3cnc4ccccc4c3N3CCOCC3)cc2)CC1 [Example 237] 1000 to 10000 nM

Any idea what IC50 was measured for Cc1c(-c2ccc(OC3CCN(C(=O)C4CC4)CC3)cc2)cccc1-c1ccccn1 [Example 407, TFA salt] ? 1000 to 10000 nM

----------
Structures can show the parent of a compound that is named as a salt.
assay-endpoint: melting point (°C)
Report only the number, with the unit °C understood.

Consider the worked cases shown below.
>  <compound>
CCC(=O)N1CCC(Sc2ccc(-c3cncc4ccccc34)cc2)CC1 (as salt: HCl) [Example 519]

>  <unit-of-measure>
°C

>  <melting point>
88

$$$$
>  <compound>
Cc1nccc2cc(-c3ccc(OC4CCN(C(=O)NCC(C)C)CC4)cc3)ccc12 [Example 580]

>  <unit-of-measure>
°C

>  <melting point>
157

$$$$
>  <compound>
CCC(=O)N1CCC(Sc2ccc(-c3cnc4ccccc4c3)cc2)CC1 (as salt: HCl) [Example 518]

>  <unit-of-measure>
°C

>  <melting point>
70

$$$$
>  <compound>
CC(C)CC(=O)N1CC(Oc2ccc(-c3cnc4ccccc4c3)cc2)C1 [Example 341]

>  <unit-of-measure>
°C

>  <melting point>
201

$$$$

Using the record for O=C(C1CC1)N1CC(Oc2ccc(-c3cnc4ccccc4c3)cc2)C1 [Example 340] , report its melting point. 187

Endpoint output: melting point of CCC(=O)N1CC(Oc2ccc(-c3cnc4ccccc4c3)cc2)C1 [Example 338] . Value? 172

Record request: melting point value, item Cc1c(-c2ccc(OC3CCN(C(=O)NCC(C)C)CC3)cc2)cnc2ccccc12 [Example 590] 153

I'd like to know its melting point. The compound in question is CCC(=O)N1CC[C@@H](Oc2ccc(-c3cnc4ccccc4c3)cc2)C1 (as salt: HCl) [Example 345] 51

Need melting point of CCC(=O)N1CCC(Sc2ccc(-c3ccc4cnccc4c3)cc2)CC1 (as salt: HCl) [Example 517] , thanks. 222

Fill in the blank: the reported melting point of NC(=O)N1CCC(Oc2ccc(-c3ccc4nccn4c3Cl)cc2)CC1 [Example 577] is ____. 204

----------
Here, each record is paired with measured IC50 data.
# target: recombinant human baculovirus-expressed GST-tagged FASN (Homo sapiens)
# Construct: GST
# protocol-notes: FASN enzyme activity assay, fluorescence-based detection of CoA with CPM
# Assay type: biochemical
# condition-label: 5 nM FASN, 150 μM NADPH, 10 μM acetyl-CoA, 25 μM malonyl-CoA, 90 minutes incubation; read-out: IC50 data for Compounds of Formulae I-V/V(a): Activity
# Text: FASN Enzyme activity may be determined by detecting coenzyme A (CoA), a product of FASN-catalyzed synthesis of palmitate from acetyl-CoA and malonyl-CoA with NADPH as a cofactor. The assay is fluorescence-based and measures the interaction of free CoA with 7-diethylamino-3-(4′-malemimidylphenyl)-4-methylcoumarin (CPM; Life Technologies, CA) as described in Chung et al (2008). […]
Counter-ions that a name gives are not always drawn.

Reference set (5 entries):
>  <compound>
CCC(=O)N1CCC(Oc2ccc(-c3ccc4c(C5CC5)nccc4c3)cc2)CC1 [Example 439]

>  <IC50>
1 to 10 µM

$$$$
>  <compound>
CCC(=O)N1CCC(Oc2ccc(-c3ccc4cc(C)cnc4c3)cc2)CC1 [Example 280]

>  <IC50>
0.001 to 0.099 µM

$$$$
>  <compound>
Cc1c(-c2ccc(OC3CCN(C(=O)C4(N)CC4)CC3)cc2)ccc2nccn12 [Example 305]

>  <IC50>
0.1 to 0.999 µM

$$$$
>  <compound>
CCC(=O)N1CCC(Oc2ccc(-c3ccc4cnccc4c3)cc2)CC1 [Example 1]

>  <IC50>
0.001 to 0.099 µM

$$$$
>  <compound>
Cc1c(-c2ccc(O[C@H]3CCN(C(=O)[C@H]4CCCO4)C[C@H]3F)cc2)ccc2cccnc12 [Example 366, HCl]

>  <IC50>
0.001 to 0.099 µM

$$$$

What does the record list as IC50 for O=C(N1CCC(Oc2ccc(-c3cnc4ccccc4c3)cc2)CC1)N1CCCO1 [Example 73] ? 0.001 to 0.099 µM

Given the compound CCC(=O)N1CCC(Sc2ccc(-c3cncc4ccccc34)cc2)CC1 [Example 519, HCl] , what is its reported IC50? 1 to 10 µM

----------
Some molecules, each annotated with its measured pIC50.
# target: recombinant human baculovirus-expressed GST-tagged FASN (Homo sapiens)
# Construct: GST
# protocol-notes: FASN enzyme activity assay, fluorescence-based detection of CoA with CPM
# Assay type: biochemical
# condition-label: 5 nM FASN, 150 μM NADPH, 10 μM acetyl-CoA, 25 μM malonyl-CoA, 90 minutes incubation; read-out: IC50 data for Compounds of Formulae I-V/V(a): Activity
pIC50: −log10 of the molar value.

>  <smi>
CCC(=O)N1CCC(Oc2ccc(-c3ccnc(Oc4ccccc4)c3)cc2)CC1

>  <pIC50>
5.00 to 6.00

$$$$
>  <smi>
O=C(C1CCCC1)N1CCC(Oc2ccc(-c3cnc4ccccc4c3)cc2)CC1

>  <pIC50>
6.00 to 7.00

$$$$
>  <smi>
CCC(=O)N1CCC(Oc2ccc(-c3ccc4cccnc4c3OC)cc2F)CC1

>  <pIC50>
7.00 to 9.00

$$$$
>  <smi>
CC(C)(C)OC(=O)N1CCC(Oc2ccc(-c3cnc4ccccc4c3)cc2F)CC1

>  <pIC50>
5.00 to 6.00

$$$$

Now turn to the next molecule.
Return reported pIC50; argument: N#Cc1ccc(-c2ccc(OC3CCN(C(=O)C4CC4)CC3)cc2)cc1 6.00 to 7.00

----------
Measured melting point, listed per entry for reference.
Structures can show the parent of a compound that is named as a salt.
A number alone suffices; assume °C.

Reference set (5 entries):
>  <compound>
CC(C)CCNC(=O)N1CCC(Oc2ccc(-c3ccc4nccn4c3Cl)cc2)CC1 [Example 572]

>  <reported-result>
185

$$$$
>  <compound>
CCCNC(=O)N1CCC(Oc2ccc(-c3cnc4ccccc4c3C)cc2)CC1 [Example 591]

>  <reported-result>
171

$$$$
>  <compound>
CC(C)C(=O)N1CCC(Sc2ccc(-c3cncc4ccccc34)cc2)CC1 (as salt: HCl) [Example 523]

>  <reported-result>
120

$$$$
>  <compound>
CCC(=O)N1CC[C@H](Oc2ccc(-c3cnc4ccccc4c3)cc2)C1 (as salt: HCl) [Example 343]

>  <reported-result>
60

$$$$
>  <compound>
CC(C)CNC(=O)N1CCC(Oc2ccc(-c3ccc4nccn4c3Cl)cc2)CC1 [Example 565]

>  <reported-result>
201

$$$$

Suppose we examine the compound CC(C)CONC(=O)N1CCC(Oc2ccc(-c3ccc4nccn4c3Cl)cc2)CC1 [Example 571] ; what melting point value has been reported? 157

Name the reported melting point value associated with the compound CCCNC(=O)N1CCC(Oc2ccc(-c3ccc4c(C)nccc4c3)cc2)CC1 [Example 579] 181

----------
# pIC50 annotations
# target: recombinant human baculovirus-expressed GST-tagged FASN (Homo sapiens)
# Construct: GST
# protocol-notes: FASN enzyme activity assay, fluorescence-based detection of CoA with CPM
# Type: biochemical
# condition-label: 5 nM FASN, 150 μM NADPH, 10 μM acetyl-CoA, 25 μM malonyl-CoA, 90 minutes incubation; read-out: IC50 data for Compounds of Formulae I-V/V(a): Activity
pIC50: −log10 of the molar value. Where a name gives a salt, the structure may show the parent alone.

Sample records with pIC50:
>  <molecule>
COc1nccc2cc(-c3ccc(OC4CCN(C(=O)[C@H]5CCCO5)CC4)cc3)ccc12 [Example 432]

>  <pIC50>
7.00 to 9.00

$$$$
>  <molecule>
Nc1nccc2cc(-c3ccc(OC4CCN(C(=O)[C@H]5CCCO5)CC4)cc3)ccc12 [Example 454]

>  <pIC50>
7.00 to 9.00

$$$$
>  <molecule>
Cc1c(-c2ccc(O[C@H]3CCN4C(=O)CC[C@H]4C3)cc2)ccc2cccnc12 (racemic) [Example 355]

>  <pIC50>
5.00 to 6.00

$$$$
>  <molecule>
Cc1c(-c2ccc(OC3CCN(C(=O)C4CC4(C)C)CC3)cc2)ccc2cccnc12 (centres unmarked) [Example 322]

>  <pIC50>
7.00 to 9.00

$$$$
>  <molecule>
CCC(=O)N1CCC(Oc2ccc(-c3ccc4ccccc4c3)cc2)CC1 [Example 10]

>  <pIC50>
7.00 to 9.00

$$$$

For O=C([C@H]1CCCO1)N1CCC(Oc2ccc(-c3cnc4cc(F)ccc4c3)cc2)CC1 [Example 479] , what is its reported pIC50? 7.00 to 9.00

Fill in: pIC50 of CC(C)C(=O)N1CCC(Oc2ccc(-c3cnc4ccccc4c3)cn2)CC1 [Example 133, HCl] is ___ 5.00 to 6.00

Tell me the measured pIC50 of Cc1c(-c2ccc(OC3CCN(C(=O)C4CC4)CC3)cc2)cnc2ccccc12 [Example 61] , please. 7.00 to 9.00
